- experimental_protocol: MAGI-CCR5 and HeLa-R5-16 cytotoxicity, dose response, cytotoxicity control for HIV-1 fusion inhibitor project, cell-based, MAGI and MAGI-HeLa co-culture (AID 2286);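 further: cells exposed to compound for at least 64 h before ATP readout; 100% = median of DMSO vehicle wells with no ATP signal meaning 0%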
- measurement_conditions: MAGI-CCR5 cells viability, CellTiter-Glo ATP luminescence; at 50 µM (top of the series)
Active and inactive are the calls of the source.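 How the source made its calls: active means minimum cell viability of 80% or lower across the dose range, counted as toxic; inactive means minimum cell viability above 80%.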
Kindly state viability for each of the entries shown.

So what's the measured viability for this one? CCOc1cc(/C=N/Nc2cccc(C(=O)O)c2)ccc1OC(=O)c1ccccc1
95.7% (inactive)

Returns the measured viability for the input compound. Input: O=[N+]([O-])c1cc(Cl)cc(/C=N/NC(=S)Nc2ccc(S(=O)(=O)N3CCOCC3)cc2)c1O
98.8% (inactive)

Need viability of Cc1ccc(N2C(=O)/C(=C/c3ccc(CN(CCC#N)S(C)(=O)=O)o3)C(=O)NC2=S)cc1C , thanks.
89.2% (inactive)

Need viability of C=CCOC(=O)C1=C(C)N=c2s/c(=C3\C(=O)N(CC(=O)O)c4ccccc43)c(=O)n2C1c1ccc(OC)cc1 (stereo not drawn) , thanks.
97.3% (inactive)

May I ask what viability has been recorded for Cc1ccc(NS(=O)(=O)c2ccc(N/N=C/c3ccccc3OCC(=O)O)c([N+](=O)[O-])c2)c(C)c1 ?
108% (inactive)

Which viability value is on record for COc1ccc(/C=C2/SC(=S)N(CC(=O)O)C2=O)cc1OCc1ccc(Cl)cc1 ?
104% (inactive)

viability lookup needed for CCCOc1ccc(C(=O)NNC(=S)NC(=O)c2cc(-c3ccc(Cl)cc3)nc3ccccc23)cc1 , thanks.
98% (inactive)

Need viability, item O=C(O)COc1ccccc1/C=N/Nc1ccc(S(=O)(=O)Nc2ccc(Cl)cc2)cc1[N+](=O)[O-]
99.2% (inactive)

====

- experimental_protocol: MAGI-CCR5 and HeLa-R5-16 cytotoxicity, dose response, cytotoxicity control for HIV-1 fusion inhibitor project, cell-based, MAGI and MAGI-HeLa co-culture (AID 2286);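 further: cells exposed to compound for at least 64 h before ATP readout; 100% = median of DMSO vehicle wells with no ATP signal meaning 0%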
- measurement_conditions: MAGI-CCR5 cells viability, CellTiter-Glo ATP luminescence; at 50 µM (top of the series)
Could you please mark yes (1) for values of viability below 90% and no (0) for values at or above it?

Please state whether viability is below 90% for O=C(CCN1C(=O)/C(=C\c2ccccc2F)SC1=S)Nc1ccc(C(=O)O)c(O)c1
no (0)

Criterion: viability strictly below 90%. Is it met by Cc1ccc(-c2nn(-c3ccccc3)cc2/C=C2\SC(=S)N(CC(=O)O)C2=O)cc1 ?
yes (1)

# strict comparison: is reported viability < 90%? input = CCOC(=O)C1=C(C)N=c2s/c(=C\c3ccc(OCC(=O)O)c(OC)c3)c(=O)n2C1c1ccc(OC)cc1 (stereo not given)
no (0)

Confirm or reject: viability of CS(=O)(=O)C1=NSC2=NC(=O)/C(=C\c3ccc(OC(=O)c4ccco4)c(Br)c3)C(=N)N21 lies strictly below 90%
no (0)

====

- experimental_protocol: MAGI-CCR5 and HeLa-R5-16 cytotoxicity, dose response, cytotoxicity control for HIV-1 fusion inhibitor project, cell-based, MAGI and MAGI-HeLa co-culture (AID 2286);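 further: cells exposed to compound for at least 64 h before ATP readout; 100% = median of DMSO vehicle wells with no ATP signal meaning 0%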
- measurement_conditions: MAGI-CCR5 cells viability, CellTiter-Glo ATP luminescence; at 50 µM (top of the series)
measurement_name: viability (%)
Report the value in % with no unit label.

Tell me the measured viability of O=C(O)c1cccc2c(-c3ccccc3)c(-c3ccccc3)[nH]c12 , please.
93.1

Quick one: viability of Cc1cc(N2C(=O)C(O)=C(C(=O)c3ccc(C)o3)C2c2cccc(Oc3ccccc3)c2)no1 (configuration not stated) ?
82.1

Return reported viability; argument: O=C(O)CN1C(=O)/C(=C\c2cc(Br)ccc2OCc2ccccc2F)SC1=S
101

Param item = COc1ccc(NC(=O)c2c[nH]n3c(=O)cc(C4CCN(C(=O)OC(C)(C)C)CC4)nc23)cc1Cl ; retrieve measured viability.
88.3

Name the reported viability value associated with the molecule CCOc1cc(/C=N/NC(=O)c2ccc(-c3csc(Nc4ccc(C)cc4)n3)cc2)ccc1OCC(=O)O
90.2

Could you tell me which viability is on file for O=C1NN(c2ccccc2)C(=O)/C1=C\c1cccc(OC(=O)c2cccs2)c1 ?
85.1

Suppose we examine the molecule O=C(O)/C(CC(=O)c1ccc(Cl)cc1)=N/Nc1ccc([N+](=O)[O-])cc1[N+](=O)[O-] ; what viability value has been reported?
84

Would you kindly share the measured viability for O=C(O)c1ccccc1NS(=O)(=O)c1ccc(NNC(=S)Nc2ccc(OC(F)F)cc2)c([N+](=O)[O-])c1 ?
101

State the recorded viability for this entry: O=C1N/C(=N\S(=O)(=O)c2ccccc2)S/C1=C\c1cc([N+](=O)[O-])ccc1O
93.8

Dear colleague, I am looking for the recorded viability of the following molecule: Cc1cc(C)cc(-n2cccc2/C=C2/C(=N)N3C(=NC2=O)SN=C3S(C)(=O)=O)c1
96.8

Value lookup for viability; key = COc1cc(/C=N/Nc2ccc(Cl)c(C(=O)O)c2)ccc1OC(=O)c1ccc(F)cc1
89.8

// lookup viability for O=C1NN(c2ccc(Cl)cc2)C(=O)/C1=C\c1ccc(-c2cccc(C(=O)O)c2)o1
83.3

Field request: viability | item: N#Cc1c(-c2ccccc2)nc(SCC(=O)Nc2ccc(OC(F)(F)Cl)cc2)[nH]c1=O
96.6

Fill in the blank: the reported viability of CCc1nnc(NS(=O)(=O)c2ccc(NC(=O)/C=C/c3ccccc3Cl)cc2)s1 is ____.
96.3

So what does the record say about viability for O=C1NC(=S)N(c2ccc(F)cc2)C(=O)/C1=C\c1ccoc1 ?
84.8

viability lookup needed for CCc1ccc(N=C2NC(=O)/C(=C/c3cc(Br)c(OCC(=O)O)c(OC)c3)S2)cc1 , thanks.
82.9

What does the record list as viability for CCc1nnc(NS(=O)(=O)c2ccc(N/C=C(\C=O)c3nc4cc(Cl)ccc4o3)cc2)s1 ?
90.2

Request the reported viability associated with N=C1/C(=C/c2ccc(-c3cccc(C(=O)O)c3)o2)C(=O)N=C2SC=C(c3ccccc3)N12
85.3

Quick check: viability of Cc1cc(/C=C2\C(=N)N3N=C(S(C)(=O)=O)SC3=NC2=O)c(C)n1Cc1ccccc1 ?
110

Report viability for COc1cccc(-c2nc(SCC(=O)Nc3nc(-c4ccccc4)c(C)s3)[nH]c(=O)c2C#N)c1 please.
87.6

Requested read-out: viability. Entry: CCc1nnc(NS(=O)(=O)c2ccc(NC(=S)NC(=O)/C=C/c3ccc(C(C)C)cc3)cc2)s1
82.2

Request the reported viability associated with Cc1ccccc1N=C1NC(=O)/C(=C/c2cccn2-c2cccc(C(=O)O)c2)S1
94.2

If you can, please state the reported viability value of COc1ccc(C(=O)COC(=O)c2ccccc2NS(=O)(=O)c2ccc(O)c([N+](=O)[O-])c2)cc1 .
83.3

Please report the recorded viability for CCOc1cc(/C=N/N=C2/NC(=O)C(CC(=O)O)S2)ccc1OCc1ccc(Cl)cc1Cl (configuration not stated) .
96

Consider the molecule O=C(O)c1ccc(/C=N/NC(=O)c2ccc(CN3c4cccc5cccc(c45)S3(=O)=O)cc2)cc1 and give its measured viability.
85

# input molecule: COc1cc(/C=N/Nc2ccc(Cl)c(C(=O)O)c2)ccc1OC(=O)c1ccccc1F ; wanted: its viability
103

Which value of viability has been reported for Cc1cn2c(N)c(C=C3C=C(Cl)C(=O)C(Cl)=C3)c(=O)nc2s1 in the records?
83.9

Record request: viability value, item O=C(O)c1ccccc1N=Nc1c(O)[nH]c2ccc([N+](=O)[O-])cc12
90.2

Would you mind telling me what viability value was observed for N#Cc1c(-c2ccccc2)nc(SCc2cccc(Cl)c2)[nH]c1=O ?
95.8

Reported viability for O=C1/C(=C2\C(=O)N(Cc3ccc(F)cc3)c3ccccc32)SC(=S)N1CCS(=O)(=O)O : what is it?
99.5

Could you share which viability value was measured for CCS(=O)(=O)C1=NN2C(=N)/C(=C\c3ccc(OCCOc4cccc(OC)c4)c(OC)c3)C(=O)N=C2S1 ?
83.7

Fill in: viability of COc1cccc(C2C3=C(N=c4s/c(=C\c5ccc(OCC(=O)O)cc5)c(=O)n42)c2ccccc2CC3)c1 (configuration not stated) is ___
90.2

Could you share which viability value was measured for O=C1NN(c2ccc(Cl)c(Cl)c2)C(=O)/C1=C/c1ccc(-c2ccccc2C(=O)O)o1 ?
105

Which viability reading was recorded for the molecule O=C(Nc1ccc(C(=O)O)cc1)/C(=C\C=C\c1ccccc1)NC(=O)c1cccc(Br)c1 ?
89.9

Would you mind telling me what viability value was observed for O=C(O)c1cc(NC(=O)c2ccc(Br)cc2)cc(NC(=O)c2ccc(Br)cc2)c1 ?
103

Entry O=C(O)c1[nH]c2ccccc2c1C(c1ccccc1)c1c(C(=O)O)[nH]c2ccccc12 has what viability?
86

Recorded viability of CC(c1ccccc1)N1C(=O)c2ccc(C(=O)Nc3ccccc3C(=O)O)cc2C1=O (configuration not stated) , please.
100

Values were extracted from PubChem BioAssay AID2286.
